target: MAdCAM-IgG1 Fc fusion (human); test: SPR, protocol 1
Sequence (chain, as listed by the source): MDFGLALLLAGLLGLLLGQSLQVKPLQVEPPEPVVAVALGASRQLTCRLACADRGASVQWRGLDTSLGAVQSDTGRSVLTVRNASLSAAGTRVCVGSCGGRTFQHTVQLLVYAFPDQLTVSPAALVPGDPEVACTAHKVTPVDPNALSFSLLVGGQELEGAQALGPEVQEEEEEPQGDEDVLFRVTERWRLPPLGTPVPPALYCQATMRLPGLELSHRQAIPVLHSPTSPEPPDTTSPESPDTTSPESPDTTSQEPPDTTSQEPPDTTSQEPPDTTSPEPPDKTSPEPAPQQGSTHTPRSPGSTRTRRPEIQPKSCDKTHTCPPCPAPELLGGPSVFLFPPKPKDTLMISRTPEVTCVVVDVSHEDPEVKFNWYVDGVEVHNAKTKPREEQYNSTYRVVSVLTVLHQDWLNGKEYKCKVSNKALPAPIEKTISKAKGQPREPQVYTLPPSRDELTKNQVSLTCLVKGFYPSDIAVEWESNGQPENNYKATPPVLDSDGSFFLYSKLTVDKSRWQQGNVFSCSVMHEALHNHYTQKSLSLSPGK
RESULT_TYPE: pKd
To interpret pKd, take it as minus log10 of a concentration measured in moles per litre.

BINDER	OBSERVED
7.16.6 (antibody, V domains shown) VH: QVQLVQSGAEVKKPGASVKVSCKASGYTFTSYGINWVRQAPGQGLEWMGWISVYSGNTNYAQKVQGRVTMTADTSTSTAYMDLRSLRSDDTAVYYCAREGSSSSGDYYYGMDVWGQGTTVTVSS VL: DIVMTQTPLSLSVTPGQPASISCKSSQSLLHTDGTTYLYWYLQKPGQPPQLLIYEVSNRFSGVPDRFSGSGSGTDFTLKISRVEAEDVGIYYCMQNIQLPWTFGQGTKVEIKR	11.82
6.14.2 (antibody, V domains shown) VH: EVQLLESGGGLVQPGGSLRLSCAASGLTFNNSAMTWVRQAPGKGLEWVSTTSGSGGTTYYADSVKGRFTISRDSPKNTLYLQMNSLRAEDTAVYYCAARGYSYGTTPYEYWGQGTLVTVSS VL: MDMRVPAQLLGLLLLWLRGARCDIQMTQSPSSLSASVGDRVTITCRASRSISSYLNWYQQKPGKAPKVLIFFVSSLQSGVPSRFSGSGSGTDFTLTISSLQPEDFATYYCQQNYIPPITFGQGTRLEIRR	11.11
9.8.2 (antibody, V domains shown) VH: QVQLVESGGGVVQPGRSLRLSCAASGFTFSSYGMHWVRQAPGKGLEWVAVIWYDGSNEYYADSVKGRFTISRDNSKNTLYLQMNSLRAEDTAVYYCARGAYHFAYWGQGTLVTVSS VL: DMRVPAQLLGLLLLWLSVAGARCDIQMTQSPSSLSASVGDRVTITCQASQDISNYLNWYQQKPGKAPKLLIYDASNLETGVPSRFSGSGSGTDFTFTISSLQPEDIATYSCQHSDNLSITFGQGTRLEIKR	10.00
6.34.2 (antibody, V domains shown) VH: QVQLVESGGGVVQPGRSLRLSCAASGFTFSSYGMHWVRQAPGKGLEWVAVISNDGNNKYYADSVKGRFTISRDNSKNTLYLQMNSLSAEDTAVYYCARDSTAITYYYYGMDVWGQGTTVTVSS VL: MDMRVPAQLLGLLLLWLRGARCDIQMTQSPSSLSASVGDRVTITCRASQNISSYLNWFQQKPGKAPKLLIYAASGLKRGVPSRFSGSGSGTDFTLTIRTLQPDDFATYSCHQSYSLPFTFGPGTKVDIKR	10.80

// lookup pKd for 6.73.2 (antibody, V domains shown) VH: EVQLLESGGDLVQPGGSLRLSCAASGFTFRSYAMNWVRQAPGKGLEWVSVISGRGGTTYYADSVKGRFTISRDNSKNTLYLQMNSLRAEDAAVYYCAKIAVAGEGLYYYYGMDVWGQGTTVTVSS VL: MDMRVPAQLLGLLLLWLRGARCDIQMTQSPSSLSASVGDRVTFTCRASQNITNYLNWYQQKPGKAPKLLIYAASSLPRGVPSRFRGSGSGTDFTLTISSLQPEDFATYYCQQSYSNPPECGFGQGTTLDIKR
10.03

Moving on to 6.77.1 (antibody, V domains shown) VH: EVQLVESGGGLVKPGGSLRLSCAASGFTFSSYSMNWVRQAPGKGLEWVSSISSSSSYIYYADSVKGRFTISRDNAKNSLYLQMNSLRAEDTAVYYCARDGYSSGWSYYYYYGMDVWGQGTTVTVSS VL: DIVMTQTPLSLSVTPGQPASISCNSSQSLLLSDGKTYLNWYLQKPGQPPQLLIYEVSNRFSGVPDRFSGSGSGTDFTLKISRVEAEDVGVYSCMQSIQLMCSFGQGTKLEIKR
11.17
